System: 786-0 renal
Method Description: NCI-60 one-dose screen, 48 h (100 = growth as untreated, 0 = no growth, -100 = all killed)
Measurement Conditions: 10 µM unless noted
About 83,000 compounds went through this panel and 20% of them were active in at least one assay; those are over-represented in the sample as a whole.
Property: growth; scope: individual compounds
Readout Label: growth (%)

Compound	Readout Label	Unit Text	Measured Result
CC(=O)CC(c1cccs1)c1c(-c2ccccc2)[nH]c2ccccc12 (stereo not given)	growth	%	98.9
CCN1C(=O)N(CC)C2Nn3c(s/c(=C\c4ccc([N+](=O)[O-])cc4)c3=O)=NC21 (stereo not given)	growth	%	85.1
CCCCC1CCCC12NC(=O)NC2=O (stereo not given)	growth	%	105
CCCCCCCCCCCCCCCCCCOc1ccccc1CC(=O)OCC[N+](CC)(CC)CC	growth	%	22.6
CCCCCCNC(=O)Oc1ccc(/C(=C(\C)c2ccc(OC)cc2)c2ccc(OCCN3CCCCC3)cc2)cc1	growth	%	41.7
O=C(Nc1nc2ccc(F)cc2s1)c1cccnc1Nc1ccc(Cl)cc1Cl	growth	%	45.8
CCCCCCCCCCCCCCCCCCOc1ccc(CC(=O)OCC[N+]2(C)CCCCC2)cc1	growth	%	92.8
CCOC(=O)C1=C(N)Oc2c(sc3c(C)cccc23)C1c1ccc(F)cc1 (stereo not given)	growth	%	33.4
Cc1nc2ccccc2c(/C=C/c2ccc(Cl)cc2)c1C(=O)/C=C/c1cccs1	growth	%	87.4
N#CC1=C(N)Oc2c(sc3c(Br)cccc23)C1c1ccc(Br)cc1 (stereo not given)	growth	%	17.1
